Could you please report measured yeast fitness for the items listed next?
B1: tRNA (parent)
chain: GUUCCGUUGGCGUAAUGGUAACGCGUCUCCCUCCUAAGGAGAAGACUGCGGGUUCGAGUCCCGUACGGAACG

Variants of: B1
measurement protocol: yeast fitness relative to wild type (ratio to wild type); higher = fitter; tRNA-Arg(CCU), competitive growth, 37 C, YPD
Variants at the floor of the assay were thinned out.
Numbers only.

Sample records with yeast fitness:
# variant, yeast fitness
measured = [
    ("A45C G51A C55A", 0.516),
    ("A20U U54A", 0.699),
    ("G67A A70G", 0.917),
    ("U32C A42G G63A", 0.556),
]

Please state, for each entry, its recorded yeast fitness.
1. G63C G67C A70C
2. C29A A37C A40U G63A
3. U2G G6A G23A C29G C55A
4. C24A C60G
5. G6A A57C A65C A70C
6. G25A U26A C31U G38A A42G A43U G67C
7. U2C U3C C34U

Marked response:
0.778
0.519
0.508
0.51
0.609
0.613
0.571

For C62A A65C the variant record lists yeast fitness as 0.766
